biological target: human AR (Homo sapiens); test: AR whole cell competitive binding assay (3H-DHT), transfected COS-1 cells; set-up: expressed in transfected cells; transient transfection with pRShAR; conditions: AR Binding Ki (nM), COS-1 cells, 1 nM 3H-DHT, Cheng-Prusoff from IC50
Ki overview
MEASURE_NAME: Ki (nM)

# COMPOUND, MEASURE_NAME, DATA_VALUE
rows = [
    ("CCCC1C(CC)c2c(ccc3[nH]c(=O)cc(C(F)(F)F)c23)N1CC(F)(F)F (racemic)", "Ki", 75),
    ("CCC1CCOc2cc3c(cc21)c(C(F)(F)F)c(F)c(=O)n3C (racemic)", "Ki", 29),
    ("CC1=CC(C)(C)Oc2cc3oc(=O)cc(C(F)(F)F)c3cc21", "Ki", 37),
    ("CCC1CCOc2c1ccc1[nH]c(=O)cc(C)c21 (racemic)", "Ki", 47),
]

* * *

Biological target: human AR (Homo sapiens, UniProt P10275)
Sequence (P10275 whole entry): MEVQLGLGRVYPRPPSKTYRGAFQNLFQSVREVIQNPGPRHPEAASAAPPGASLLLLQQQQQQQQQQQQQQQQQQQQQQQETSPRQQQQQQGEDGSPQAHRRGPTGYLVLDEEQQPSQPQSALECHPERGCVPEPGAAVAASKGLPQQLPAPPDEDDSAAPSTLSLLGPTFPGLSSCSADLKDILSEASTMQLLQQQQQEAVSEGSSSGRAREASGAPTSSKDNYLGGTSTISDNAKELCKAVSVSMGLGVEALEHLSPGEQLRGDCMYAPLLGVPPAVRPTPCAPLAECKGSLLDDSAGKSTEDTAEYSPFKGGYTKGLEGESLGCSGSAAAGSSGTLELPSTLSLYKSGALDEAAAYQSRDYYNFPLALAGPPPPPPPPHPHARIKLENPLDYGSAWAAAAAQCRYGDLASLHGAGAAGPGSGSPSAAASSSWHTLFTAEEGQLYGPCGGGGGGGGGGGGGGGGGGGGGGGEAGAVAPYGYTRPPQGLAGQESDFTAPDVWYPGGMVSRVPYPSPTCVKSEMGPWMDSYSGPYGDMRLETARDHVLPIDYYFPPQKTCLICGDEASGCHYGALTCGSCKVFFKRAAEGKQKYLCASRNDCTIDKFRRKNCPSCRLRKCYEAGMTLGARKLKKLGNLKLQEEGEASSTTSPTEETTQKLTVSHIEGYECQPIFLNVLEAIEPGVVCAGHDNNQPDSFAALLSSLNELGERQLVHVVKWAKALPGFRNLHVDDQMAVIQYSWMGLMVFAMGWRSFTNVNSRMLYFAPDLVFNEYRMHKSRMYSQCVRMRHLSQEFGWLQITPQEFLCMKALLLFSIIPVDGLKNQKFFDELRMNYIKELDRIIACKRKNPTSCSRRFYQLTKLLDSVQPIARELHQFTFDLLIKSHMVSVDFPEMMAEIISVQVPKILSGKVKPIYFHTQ
Assay: AR whole cell competitive binding assay (3H-DHT), transfected COS-1 cells
Parameters: expressed in transfected cells; transient transfection with pRShAR
Conditions: AR Binding Ki (nM), COS-1 cells, 1 nM 3H-DHT, Cheng-Prusoff from IC50
Description: AR Binding: For the whole cell binding assay, COS-1 cells in 96-well microtiter plates containing DMEM-10% FBS were transfected as described above with the following plasmid DNA: pRShAR (2 ng/well), pRS-β-Gal (50 ng/well) and pGEM (48 ng/well). Six hours after transfection, media was removed, the cells were washed with PBS and fresh media was added. […] After correcting for non-specific binding, IC50 values were determined. […] The IC50 value was determined graphically from a log-logit plot of the data. […]

# MOLECULE, Ki
measured = [
    ("O=c1cc(C(F)(F)F)c2cc3c(cc2[nH]1)C1CCCC1N3CC(F)(F)F (racemic) [Compound 120]", "12 nM"),
    ("CCCN1c2ccc3[nH]c(=O)cc(C(F)(F)F)c3c2C2CCCC21 (racemic) [Compound 125]", "1.3 nM"),
    ("CCN1c2ccc3[nH]c(=O)cc(C(F)(F)F)c3c2C2CCCC21 (racemic) [Compound 121]", "7.6 nM"),
    ("CCN1c2cc3c(C(F)(F)F)cc(=O)[nH]c3cc2C2CCCC21 (racemic) [Compound 122]", "21 nM"),
    ("Cc1[nH]c2c(ccc3[nH]c(=O)cc(C(F)(F)F)c32)c1CCO [Compound 177]", "31 nM"),
    ("O=c1cc(C(F)(F)F)c2c(ccc3c2c2ccccc2n3CC(F)(F)F)[nH]1 [Compound 158]", "7.1 nM"),
    ("O=c1cc(C(F)(F)F)c2c3c(ccc2[nH]1)N(Cc1ccoc1)C1CCCC31 (racemic) [Compound 126]", "2.3 nM"),
    ("O=c1cc(C(F)(F)F)c2c3c(ccc2[nH]1)N(CC(F)(F)F)C1CCCC31 (single isomer, unassigned; (+)) [Compound 178]", "900 nM"),
]

* * *

# log10 Ki per record follows
Target: human AR (Homo sapiens, UniProt P10275)
Experiment: AR whole cell competitive binding assay (3H-DHT), transfected COS-1 cells
Design: expressed in transfected cells; transient transfection with pRShAR
Settings: AR Binding Ki (nM), COS-1 cells, 1 nM 3H-DHT, Cheng-Prusoff from IC50
Protocol: AR Binding: For the whole cell binding assay, COS-1 cells in 96-well microtiter plates containing DMEM-10% FBS were transfected as described above with the following plasmid DNA: pRShAR (2 ng/well), pRS-β-Gal (50 ng/well) and pGEM (48 ng/well). Six hours after transfection, media was removed, the cells were washed with PBS and fresh media was added. […] After correcting for non-specific binding, IC50 values were determined. […] The IC50 value was determined graphically from a log-logit plot of the data. […]
MEASURE_NAME: log10 Ki (log10 of the value in nM)

# COMPOUND, log10 Ki
measured = [
    ("O=c1cc(C(F)(F)F)c2c3c(ccc2[nH]1)N(CC(F)(F)F)C1CCCCC31 (racemic)", 1.32),
    ("CC1CCc2cc3[nH]c(=O)cc(C(F)(F)F)c3cc2N1CC(F)(F)F (stereo not drawn)", 1.90),
    ("CCC1(CC)CCc2c(ccc3[nH]c(=O)cc(C(F)(F)F)c23)N1", 1.65),
    ("O=c1cc(C(F)(F)F)c2c3c(ccc2[nH]1)N(CC(F)(F)F)C1CCCC31 (single isomer, unassigned; (-)) [Compound 179]", 0.61),
    ("CCN1c2ccc3[nH]c(=O)cc(C(F)(F)F)c3c2CCC1(C)C", 0.83),
    ("CCCN1c2ccc3[nH]c(=O)cc(C(F)(F)F)c3c2CCC1(C)C", 0.08),
]
